Assay: XTT-based cytotoxicity assay
Settings: human
Output T for records whose CC50 at 3 days is lower than 0.08 µM, F for records at or above 0.08 µM.

Cc1ccnc2c1NC(=O)c1cccnc1N2C1CC1 [Nevirapine, reference compound] :: F
CC=C(C)C(=O)OC1C(COC(=O)c2cccnc2)C(OC(C)=O)C2C(=O)C3(CC(C)C(OC(=O)CC)C13)C(C)(O)CC1(OC(C)=O)C2C1(C)C (stereo not drawn) [Compound 6] :: F
CC=C(C)C(=O)OC1C(COC(=O)c2cccnc2)C(O)C2C(=O)C3(CC(C)C(OC(=O)CCC)C13)C(C)(O)CC1(OC(C)=O)C2C1(C)C (stereo not drawn) [Compound 5] :: T
CCC(=O)OC1C(C)CC23C(=O)C(C(OC(=O)c4ccccc4)C(COC(=O)c4cccnc4)C(OC(C)=O)C12)C1C(C)(C)C1(OC(C)=O)CC3(C)O (stereo not drawn) [Compound 7] :: F
CC1(C)CC[C@]2(C(=O)O)CC[C@]3(C)C(=CC[C@@H]4[C@@]5(C)CC[C@H](O)C(C)(C)[C@@H]5CC[C@]43C)[C@@H]2C1 [Compound 4, Oleanolic acid] :: T
CC=C(C)C(=O)OC1C(CO)C(O)C2C(=O)C3(CC(C)C(OC(=O)CCC)C13)C(C)(OC(=O)c1cccnc1)CC1(OC(C)=O)C2C1(C)C (stereo not drawn) [Compound 8] :: F

###

System: single cycle replicable HIV-1 (SCR HIV-1) virions
Details: ratio of CC50 (Hela, XTT) to IC50 (p24)
Tick TRUE if Therapeutic index TI (CC50/IC50) is 4 or greater. Tick FALSE if Therapeutic index TI (CC50/IC50) is less than 4.

C=C(C)C(O)CCC(C)C1CC[C@@]2(C)C3CCC4C(C)(C)[C@@H](O)CC[C@@]45C[C@@]35CC[C@]12C (stereo partly drawn) [1a & 1b] :: TRUE
CC(C/C=C\C(C)(C)O)C1CC[C@@]2(C)C3CCC4C(C)(C)[C@@H](O)CC[C@@]45C[C@@]35CC[C@]12C (stereo partly drawn) [Compound 2, Cycloart-23-ene-3β,25-diol] :: FALSE
Cc1ccnc2c1NC(=O)c1cccnc1N2C1CC1 [Nevirapine, reference compound] :: TRUE
CC=C(C)C(=O)OC1C(COC(=O)c2cccnc2)C(OC(C)=O)C2C(=O)C3(CC(C)C(OC(=O)CC)C13)C(C)(O)CC1(OC(C)=O)C2C1(C)C (stereo not drawn) [Compound 6] :: TRUE
CC1(C)CC[C@]2(C(=O)O)CC[C@]3(C)C(=CC[C@@H]4[C@@]5(C)CC[C@H](O)C(C)(C)[C@@H]5CC[C@]43C)[C@@H]2C1 [Compound 4, Oleanolic acid] :: FALSE
CC=C(C)C(=O)OC1C(COC(=O)c2cccnc2)C(O)C2C(=O)C3(CC(C)C(OC(=O)CCC)C13)C(C)(O)CC1(OC(C)=O)C2C1(C)C (stereo not drawn) [Compound 5] :: FALSE
